# measurement_description: AUC at NOAEL oral dose from oral Celecoxib NDA package
# condition_description: in vivo; oral NOAEL dose 20 mg/kg; Male (M); read-out: Extrapolated AUC for 25 days
readout_kind: AUC (µg·h/mL)
Answer in µg·h/mL, number only, no unit symbol.

// AUC value for Cc1ccc(-c2cc(C(F)(F)F)nn2-c2ccc(S(N)(=O)=O)cc2)cc1 [Celecoxib] : 468

Cited source for all entries: patent US20190038756A1
